# assayTarget: T1, RSV postfusion F (postF), subtype A (respiratory syncytial virus subtype A, UniProt P03420 26-513)
# T1 construct: also called Postfusion subtype A; F deltaFP
# measurementProtocol: BLI
quantityMeasured: binding result

(Q) Data request, read-out binding result, for ADI-24842 (antibody, V domains shown, full-length IgG) VH: QVQLVQSGGGLVKPGGSLRLSCAASGFTFSSYSMNWVRQAPGKGLEWVSSISSSSSYIYYADSVKGRFTISRDNAKNSLYLQMNSLRAEDTAVYYCARVPPHDYGGYYFDYWGQGTLVTVSS VL: QSVVTQPPSVSGAPGQRVTISCTGSSSNIGAGYDVHWYQQLPGTAPKLLIYRNSNRPSGVPDRFSGSKSGTSASLAIIGLQAEDEADYYCQSYDSSLSVVFGGGTKLTVL
(A) no binding

(Q) Sample ADI-14391 (antibody, V domains shown, full-length IgG; also called Ab 58) VH: QVQLVESGGGLVQPGGSLRLSCAAAGFSFSNYAMSWVRQAPGKGLEWVAVISGNAGSTYYAESVKGRFTISRDNSKNTLHLQMNSLRGEDTAVYYCAKPPGIAVAGEYYWYFDLWGRGTLVTVSS VL: QVQLMQPPSVSVSPGQTARITCSGDALPRENAYWYQQKSGQAPVLVIYEDSKRPSGIPERFSGSSSGTMATLTITGAQVEDEADYYCYSTDTSAYHWVFGGGTKLTVL — what was its binding result?
(A) no binding

(Q) I am curious: what binding result value has been reported for ADI-25557 (antibody, V domains shown, full-length IgG) VH: EVQLLESGGGLVKPGGSLRLSCAASGFTFSSYSMNWVRQAPGKGLEWVSSISSSSSYIYYADSVKGRFTISRDNAKNSLYLQMNSLRAEDTAVYYCARGYGSGSYLDYFDYWGQGTLVTVSS VL: QPGLTQPPSVSGAPGQRVTISCTGSSSNIGAGYDVHWYQQLPGTAPKLLIYGNSNRPSGVPDRFSGSKSGTSASLAITGLQAEDEADYYCQSYDSSLSGFYVFGTGTKLTVL ?
(A) no binding
